Hello, the source for this data is the Immune Epitope Database (IEDB), in case you need it.

EXPERIMENTAL_SYSTEM: HLA-A*02:19
TEST: IEDB peptide-MHC binding, purified MHC/direct/fluorescence; filed as Kd, often an IC50 or EC50 that approximates it; bounds were set here for any values at or beyond the usual limits of such assays
CONDITION_NOTES: source organism: Cryptosporidium parvum Iowa II
pKd: −log10 of the molar value.
METRIC: pKd

Query: pKd; subject: MSQMPPHPY
≤ 4.70

====

EXPERIMENTAL_SYSTEM: HLA-B*45:06
TEST: IEDB peptide-MHC binding, purified MHC/competitive/fluorescence; filed as Kd, often an IC50 or EC50 that approximates it; bounds were set here for any values at or beyond the usual limits of such assays
CONDITION_NOTES: source organism: Orthohantavirus andesense
METRIC: Kd

Query: Kd; subject: LEEDIQHFL
≥ 5 µM

====

EXPERIMENTAL_SYSTEM: HLA-B*57:01
TEST: IEDB peptide-MHC binding, purified MHC/competitive/radioactivity; filed as Kd, often an IC50 or EC50 that approximates it; bounds were set here for any values at or beyond the usual limits of such assays
CONDITION_NOTES: source organism: Dengue virus 1 Brazil/97-11/1997
METRIC: Kd

KASQEGPLPE | 0.894 µM

Here is the next item to consider.
Query: Kd; subject: VASVELPNSL
4.53 µM

====

EXPERIMENTAL_SYSTEM: HLA-A*30:02
TEST: IEDB peptide-MHC binding, purified MHC/competitive/fluorescence; filed as Kd, often an IC50 or EC50 that approximates it; bounds were set here for any values at or beyond the usual limits of such assays
CONDITION_NOTES: source organism: Rickettsia bellii OSU 85-389
METRIC: Kd

Query: Kd; subject: EDFEIFYNL
≥ 5 µM

====

EXPERIMENTAL_SYSTEM: HLA-B*83:01
TEST: IEDB peptide-MHC binding, purified MHC/competitive/fluorescence; filed as Kd, often an IC50 or EC50 that approximates it; bounds were set here for any values at or beyond the usual limits of such assays
CONDITION_NOTES: source organism: Francisella tularensis subsp. tularensis FSC198
pKd: −log10 of the molar value.
METRIC: pKd

Query: pKd; subject: YTDKIAMSY
≤ 5.30

====

EXPERIMENTAL_SYSTEM: HLA-A*25:01
TEST: IEDB peptide-MHC binding, purified MHC/competitive/fluorescence; filed as Kd, often an IC50 or EC50 that approximates it; bounds were set here for any values at or beyond the usual limits of such assays
CONDITION_NOTES: source organism: Homo sapiens
METRIC: pKd
Just so you know, pKd here is -log10 of the concentration in molar units; reply with that number alone.

Query: pKd; subject: EVIPYTPAM
7.97

====

EXPERIMENTAL_SYSTEM: HLA-A*30:01
TEST: IEDB peptide-MHC binding, purified MHC/competitive/radioactivity; filed as Kd, often an IC50 or EC50 that approximates it; bounds were set here for any values at or beyond the usual limits of such assays
CONDITION_NOTES: source organism: Lymphocytic choriomeningitis virus (strain Armstrong)
METRIC: Kd (µM)
Numbers only; they are read as µM.

Query: Kd; subject: LQFGFGWFSY
5.21

====

EXPERIMENTAL_SYSTEM: HLA-A*29:02
TEST: IEDB peptide-MHC binding, purified MHC/competitive/radioactivity; filed as Kd, often an IC50 or EC50 that approximates it; bounds were set here for any values at or beyond the usual limits of such assays
CONDITION_NOTES: source organism: Variola virus
pKd: −log10 of the molar value.
METRIC: pKd

Query: pKd; subject: VTDTNKFAHY
≤ 4.59

====

EXPERIMENTAL_SYSTEM: HLA-A*02:19
TEST: IEDB peptide-MHC binding, purified MHC/competitive/fluorescence; filed as Kd, often an IC50 or EC50 that approximates it; bounds were set here for any values at or beyond the usual limits of such assays
CONDITION_NOTES: source organism: Bacillus anthracis str. 'Ames Ancestor'
METRIC: Kd

Query: Kd; subject: MTQNISNDK
≥ 20 µM

====

EXPERIMENTAL_SYSTEM: HLA-B*18:01
TEST: IEDB peptide-MHC binding, purified MHC/direct/fluorescence; filed as Kd, often an IC50 or EC50 that approximates it; bounds were set here for any values at or beyond the usual limits of such assays
CONDITION_NOTES: source organism: Rickettsia bellii OSU 85-389
METRIC: Kd

Query: Kd; subject: EDFEIFYNL
≥ 20 µM

====

Overview of reported pKd across a group of sequences:
EXPERIMENTAL_SYSTEM: HLA-B*15:01
TEST: IEDB peptide-MHC binding, purified MHC/competitive/radioactivity; filed as Kd, often an IC50 or EC50 that approximates it; bounds were set here for any values at or beyond the usual limits of such assays
CONDITION_NOTES: source organism: Vaccinia virus WR
Just so you know, pKd here is -log10 of the concentration in molar units; reply with that number alone.

// solved cases for pKd follow
KSSPETQQM | 7.52
VIIMAINVF | 7.58
LTFKACDHI | 6.01

Query: pKd; subject: SIIVLFQRF
8.96

Same again, this time with KSIEQHPVV
7.15

Same again, this time with ISKNAFSCM
7.11

Same again, this time with ITKINTHLA
5.54

Same again, this time with KGKAAAFAK
4.92

Same again, this time with FIRYRMHPM
8.91

====

EXPERIMENTAL_SYSTEM: HLA-B*15:01
TEST: IEDB peptide-MHC binding, purified MHC/direct/fluorescence; filed as Kd, often an IC50 or EC50 that approximates it; bounds were set here for any values at or beyond the usual limits of such assays
CONDITION_NOTES: source organism: Pseudomonas tolaasii
METRIC: Kd

Query: Kd; subject: AEGTGITHL
≥ 20 µM

====

EXPERIMENTAL_SYSTEM: HLA-B*53:01
TEST: IEDB peptide-MHC binding, purified MHC/competitive/radioactivity; filed as Kd, often an IC50 or EC50 that approximates it; bounds were set here for any values at or beyond the usual limits of such assays
CONDITION_NOTES: source organism: Dengue virus 4 Philippines/H241/1956
pKd: −log10 of the molar value.
Where pKd equals or exceeds 7, the correct label is yes; where it does not, the label is no.

IFVIDNVHTW | no

Could you now look at the following sequence, please?
Please tell me: is the sequence FPTSRTTWSI at or over 7 in terms of pKd?
yes

====

EXPERIMENTAL_SYSTEM: HLA-B*57:01
TEST: IEDB peptide-MHC binding, purified MHC/direct/fluorescence; filed as Kd, often an IC50 or EC50 that approximates it; bounds were set here for any values at or beyond the usual limits of such assays
CONDITION_NOTES: source organism: Mammarenavirus lassaense
pKd: −log10 of the molar value.
METRIC: pKd

Please tell me: pKd of GYAWIDFDI , system HLA-B*57:01?
≤ 4.70

====

EXPERIMENTAL_SYSTEM: HLA-A*11:01
TEST: IEDB peptide-MHC binding, purified MHC/competitive/radioactivity; filed as Kd, often an IC50 or EC50 that approximates it; bounds were set here for any values at or beyond the usual limits of such assays
CONDITION_NOTES: source organism: SARS coronavirus Tor2
pKd: −log10 of the molar value.
Where pKd equals or exceeds 6, the correct label is Yes; where it does not, the label is No.

Look over these answered cases.
DQDALFAYTK | No
SFIEDLLFNK | Yes
GVVREFLTR | Yes
FVFPLNSKVK | Yes

Please tell me: is the sequence QTVKPGNFNK at or over 6 in terms of pKd?
Yes

Same again, this time with RFQPFQQFGR
No

Same again, this time with MQNCLLRLK
Yes

Same again, this time with SVFYLYLTFY
Yes

====

EXPERIMENTAL_SYSTEM: HLA-B*57:01
TEST: IEDB peptide-MHC binding, purified MHC/competitive/fluorescence; filed as Kd, often an IC50 or EC50 that approximates it; bounds were set here for any values at or beyond the usual limits of such assays
CONDITION_NOTES: source organism: Entamoeba histolytica HM-1:IMSS
pKd: −log10 of the molar value.
METRIC: pKd

Query: pKd; subject: YLHIHPFKI
≤ 4.70

====

Overview of reported Kd across a group of sequences:
EXPERIMENTAL_SYSTEM: HLA-B*40:01
TEST: IEDB peptide-MHC binding, purified MHC/competitive/radioactivity; filed as Kd, often an IC50 or EC50 that approximates it; bounds were set here for any values at or beyond the usual limits of such assays
CONDITION_NOTES: source organism: Dengue virus 2 Jamaica/1409/1983
Numbers only; they are read as µM.

GEWKEGEEV | 0.295
TEAKQPATL | 0.0186
AETQHGTIV | 0.0151

Here is the next item to consider.
Please tell me: Kd of LETRTETWM , system HLA-B*40:01?
0.253
